Source listed as ChEMBL document CHEMBL3576847.

- test-details: Volume of distribution in Sprague-Dawley rat at 1 mg/kg, iv administered as suspension in 20% cyclodextrin
- Type: ADME, organism-based
- condition-description: in vivo
readout-name: Vd (L/kg)
Kindly provide the numeric value in L/kg only, without the unit symbol.

*Q* Name the reported Vd value associated with the compound CNc1ncc2cc(-c3cc(NC(=O)NCCC(C)(C)C)c(F)cc3C)c(C)nc2n1 [LY-3009120]
*A* 1.08

* * *

So I've got IC50 readings for Serine/threonine-protein kinase B-raf (Homo sapiens, UniProt P15056), take a look.
For clarity, give the value followed by its unit.

*Q* Name the reported IC50 value associated with the molecule `CNc1ncc2cc(-c3cc(NC(=O)NCCC(C)(C)C)c(F)cc3C)cnc2n1`
*A* 4.4 nM

*Q* Now the same for `CCn1c(=O)c(-c2cc(NC(=O)NCCC(C)(C)C)c(F)cc2C)cc2cnc(NC)cc21`
*A* 11 nM

*Q* Now the same for `CCn1c(=O)c(-c2ccc(F)c(NC(=O)Nc3cc(C(C)(C)C)no3)c2)cc2cnc(NC)cc21`
*A* 10 nM

*Q* Now the same for `CNc1cc2nc(C)c(-c3cc(NC(=O)NCCC(C)(C)C)c(F)cc3C)cc2cn1`
*A* 28 nM

*Q* Now the same for `CNc1ncc2cc(-c3ccc(F)c(NC(=O)NCCC(C)(C)C)c3)c(C)nc2n1`
*A* 18 nM

*Q* Now the same for `CNc1cc2nc(C)c(-c3ccc(F)c(NC(=O)NCCC(C)(C)C)c3)cc2cn1`
*A* 8.4 nM

*Q* Now the same for `CNc1cc2nc(C)c(-c3cc(NC(=O)NCCC(C)(C)C)ccc3C)cc2cn1`
*A* 27 nM

*Q* Now the same for `CNc1cc2nc(C)c(-c3cc(NC(=O)NC[C@@H](O)C(C)(C)C)c(F)cc3C)cc2cn1`
*A* 39 nM

*Q* Now the same for `CNc1cc2c(cn1)cc(-c1ccc(F)c(NC(=O)Nc3cc(C(C)(C)C)no3)c1)c(=O)n2[C@H]1CCOC1`
*A* 18 nM
